Assay: Retention time of compound by HPLC analysis
Type: physicochemical
Would you kindly list Retention_time for each of these compounds?
State the answer as a number, implicitly in min.

Look at this compound and give its reported Retention_time. `COc1ccc2nc(C(=O)Nc3ccc(-c4ccccc4)cc3)c(C)c(C(=O)O)c2c1` 7.4

Look at this compound and give its reported Retention_time. `Cc1ccc2nc(C(=O)Nc3c(F)cc(-c4cccc(F)c4)cc3F)c(C)c(C(=O)O)c2c1` 7

Look at this compound and give its reported Retention_time. `Cc1c(C(=O)Nc2c(F)cc(-c3cccc(F)c3)cc2F)nc2ccc(F)cc2c1O` 6.9

Look at this compound and give its reported Retention_time. `Cc1ccc2nc(C(=O)Nc3c(F)cc(-c4cccc(F)c4)cc3F)c(C)c(O)c2c1` 8.8

Look at this compound and give its reported Retention_time. `COc1ccc2nc(C(=O)Nc3c(F)cc(-c4cccc(F)c4)cc3F)c(C)c(C(=O)O)c2c1` 6.9

Look at this compound and give its reported Retention_time. `COc1ccc2nc(C(=O)Nc3c(F)cc(-c4cccc(F)c4)cc3F)c(C)c(O)c2c1` 7.1

Look at this compound and give its reported Retention_time. `CCOc1ccc2nc(C(=O)Nc3c(F)cc(-c4cccc(F)c4)cc3F)c(C)c(O)c2c1` 7.2

Look at this compound and give its reported Retention_time. `Cc1c(C(=O)Nc2c(F)cc(-c3cccc(F)c3)cc2F)nc2ccc(OC(F)(F)F)cc2c1O` 6.3

Look at this compound and give its reported Retention_time. `Cc1c(C(=O)Nc2ccc(-c3ccccc3)cc2)nc2ccccc2c1O` 6.9

====

Would you kindly list inhibition at 0.41 µg/mL for each of these compounds?
Tested on: A-375
Assay: Antiproliferative activity against human A375 cells at 0.41 ug/ml for 24 hrs by MTT assay
Assay type: functional
Conditions: A-375, 24 h
State the answer as a number, implicitly in %.

Look at this compound and give its reported inhibition at 0.41 µg/mL. `COc1ccc2nc(C(=O)Nc3ccc(-c4ccccc4)cc3)c(C)c(C(=O)O)c2c1` 11.3

Look at this compound and give its reported inhibition at 0.41 µg/mL. `Cc1c(C(=O)Nc2c(F)cc(-c3cccc(F)c3)cc2F)nc2ccc(C(F)(F)F)cc2c1C(=O)O` 7.82

Look at this compound and give its reported inhibition at 0.41 µg/mL. `Cc1c(C(=O)Nc2c(F)cc(-c3cccc(F)c3)cc2F)nc2ccc(OC(F)(F)F)cc2c1O` 1.02

Look at this compound and give its reported inhibition at 0.41 µg/mL. `Cc1c(C(=O)Nc2c(F)cc(-c3cccc(F)c3)cc2F)nc2ccc(OC(F)(F)F)cc2c1C(=O)O` 15.2

Look at this compound and give its reported inhibition at 0.41 µg/mL. `Cc1c(C(=O)Nc2c(F)cc(-c3cccc(F)c3)cc2F)nc2ccc(F)cc2c1C(=O)O` 3.02

====

Assay: Retention time of compound by HPLC analysis
Format: physicochemical
readout_kind: Retention_time (min)
State the answer as a number, implicitly in min.

Look at this molecule and give its reported Retention_time. `Cc1c(C(=O)Nc2c(F)cc(-c3cccc(F)c3)cc2F)nc2ccc(F)cc2c1C(=O)O` 7.2

Look at this molecule and give its reported Retention_time. `CCOc1ccc2nc(C(=O)Nc3c(F)cc(-c4cccc(F)c4)cc3F)c(C)c(C(=O)O)c2c1` 6.8

Look at this molecule and give its reported Retention_time. `CCc1ccc2nc(C(=O)Nc3c(F)cc(-c4cccc(F)c4)cc3F)c(C)c(C(=O)O)c2c1` 6.8

Look at this molecule and give its reported Retention_time. `Cc1c(C(=O)Nc2c(F)cc(-c3cccc(F)c3)cc2F)nc2ccc(C(F)(F)F)cc2c1O` 7

Look at this molecule and give its reported Retention_time. `Cc1c(C(=O)Nc2c(F)cc(-c3cccc(F)c3)cc2F)nc2ccc(OC(F)(F)F)cc2c1C(=O)O` 6.9

Look at this molecule and give its reported Retention_time. `Cc1c(C(=O)Nc2ccc(-c3ccccc3)cc2)nc2ccccc2c1C(=O)O` 6.8

Look at this molecule and give its reported Retention_time. `CCc1ccc2nc(C(=O)Nc3c(F)cc(-c4cccc(F)c4)cc3F)c(C)c(O)c2c1` 6.3

Look at this molecule and give its reported Retention_time. `COc1ccc2nc(C(=O)Nc3ccc(-c4ccccc4)cc3)c(C)c(O)c2c1` 6.4

Look at this molecule and give its reported Retention_time. `Cc1c(C(=O)Nc2c(F)cc(-c3cccc(F)c3)cc2F)nc2ccc(C(F)(F)F)cc2c1C(=O)O` 6.8

====

Assay: Antiproliferative activity against human Hep3B cells at 0.02 ug/ml for 24 hrs by MTT assay
Format: functional, Hep 3B2
readout_kind: inhibition at 0.02 µg/mL (%)
State the answer as a number, implicitly in %.

Look at this compound and give its reported inhibition at 0.02 µg/mL. `CCOc1ccc2nc(C(=O)Nc3c(F)cc(-c4cccc(F)c4)cc3F)c(C)c(O)c2c1` -0.32

Look at this compound and give its reported inhibition at 0.02 µg/mL. `CCc1ccc2nc(C(=O)Nc3c(F)cc(-c4cccc(F)c4)cc3F)c(C)c(C(=O)O)c2c1` -0.05

Look at this compound and give its reported inhibition at 0.02 µg/mL. `Cc1ccc2nc(C(=O)Nc3c(F)cc(-c4cccc(F)c4)cc3F)c(C)c(C(=O)O)c2c1` 1.05

Look at this compound and give its reported inhibition at 0.02 µg/mL. `Cc1c(C(=O)Nc2ccc(-c3ccccc3)cc2)nc2ccccc2c1C(=O)O` -0.35

Look at this compound and give its reported inhibition at 0.02 µg/mL. `COc1ccc2nc(C(=O)Nc3c(F)cc(-c4cccc(F)c4)cc3F)c(C)c(C(=O)O)c2c1` -0.57

====

Would you kindly list pIC50 for each of these molecules?
Target: Dihydroorotate dehydrogenase (quinone), mitochondrial (Homo sapiens, UniProt Q02127)
Sequence (Q02127 whole entry): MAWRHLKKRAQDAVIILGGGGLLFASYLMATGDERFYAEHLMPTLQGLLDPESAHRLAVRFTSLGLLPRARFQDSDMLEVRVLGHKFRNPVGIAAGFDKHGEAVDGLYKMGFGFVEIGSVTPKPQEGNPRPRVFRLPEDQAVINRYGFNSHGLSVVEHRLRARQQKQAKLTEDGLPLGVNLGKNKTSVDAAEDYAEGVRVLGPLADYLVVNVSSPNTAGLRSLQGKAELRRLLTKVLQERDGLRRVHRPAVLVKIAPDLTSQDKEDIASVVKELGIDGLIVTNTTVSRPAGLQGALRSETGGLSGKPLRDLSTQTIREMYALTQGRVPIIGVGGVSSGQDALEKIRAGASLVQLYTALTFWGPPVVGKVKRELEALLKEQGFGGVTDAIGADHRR
Assay: Inhibition of recombinant human DHODH activity after 20 mins by DCIP dye based colorimetric analysis in presence of 1 mM L-dihydroorotate and 0.1 mM CqD
Conceptually, pIC50 converts a concentration in mol/L into minus its log10.

Please state recorded pIC50 (tested on Dihydroorotate dehydrogenase (quinone), mitochondrial (Homo sapiens, UniProt Q02127)) of `Cc1c(C(=O)Nc2c(F)cc(-c3cccc(F)c3)cc2F)nc2ccc(C(F)(F)F)cc2c1C(=O)O` 5.46

Please state recorded pIC50 (tested on Dihydroorotate dehydrogenase (quinone), mitochondrial (Homo sapiens, UniProt Q02127)) of `CCOc1ccc2nc(C(=O)Nc3c(F)cc(-c4cccc(F)c4)cc3F)c(C)c(C(=O)O)c2c1` 5.55

Please state recorded pIC50 (tested on Dihydroorotate dehydrogenase (quinone), mitochondrial (Homo sapiens, UniProt Q02127)) of `COc1ccc2nc(C(=O)Nc3ccc(-c4ccccc4)cc3)c(C)c(C(=O)O)c2c1` 5.96

Please state recorded pIC50 (tested on Dihydroorotate dehydrogenase (quinone), mitochondrial (Homo sapiens, UniProt Q02127)) of `Cc1c(C(=O)Nc2c(F)cc(-c3cccc(F)c3)cc2F)nc2ccc(C(F)(F)F)cc2c1O` 5.22

Please state recorded pIC50 (tested on Dihydroorotate dehydrogenase (quinone), mitochondrial (Homo sapiens, UniProt Q02127)) of `Cc1c(C(=O)Nc2c(F)cc(-c3cccc(F)c3)cc2F)nc2ccc(OC(F)(F)F)cc2c1C(=O)O` 5.82

Please state recorded pIC50 (tested on Dihydroorotate dehydrogenase (quinone), mitochondrial (Homo sapiens, UniProt Q02127)) of `Cc1c(C(=O)Nc2c(F)cc(-c3cccc(F)c3)cc2F)nc2ccc(F)cc2c1C(=O)O` 5.34

Please state recorded pIC50 (tested on Dihydroorotate dehydrogenase (quinone), mitochondrial (Homo sapiens, UniProt Q02127)) of `COc1ccc2nc(C(=O)Nc3c(F)cc(-c4cccc(F)c4)cc3F)c(C)c(O)c2c1` 6.03

Please state recorded pIC50 (tested on Dihydroorotate dehydrogenase (quinone), mitochondrial (Homo sapiens, UniProt Q02127)) of `COc1ccc2nc(C(=O)Nc3ccc(-c4ccccc4)cc3)c(C)c(O)c2c1` 5.64

Please state recorded pIC50 (tested on Dihydroorotate dehydrogenase (quinone), mitochondrial (Homo sapiens, UniProt Q02127)) of `CCc1ccc2nc(C(=O)Nc3c(F)cc(-c4cccc(F)c4)cc3F)c(C)c(O)c2c1` 5.49

====

System: A-375
Assay: Antiproliferative activity against human A375 cells at 33.33 ug/ml for 24 hrs by MTT assay
Assay type: functional
Details: A-375, 24 h
Lab note: compare inhibition at 33.33 µg/mL against 30%. Equal or greater, write T. Smaller, write F.

Is reported inhibition at 33.33 µg/mL greater than or equal to 30% here: `Cc1c(C(=O)Nc2c(F)cc(-c3cccc(F)c3)cc2F)nc2ccc(C(F)(F)F)cc2c1O` T

Is reported inhibition at 33.33 µg/mL greater than or equal to 30% here: `Cc1c(C(=O)Nc2ccc(-c3ccccc3)cc2)nc2ccccc2c1C(=O)O` F

Is reported inhibition at 33.33 µg/mL greater than or equal to 30% here: `Cc1c(C(=O)Nc2c(F)cc(-c3cccc(F)c3)cc2F)nc2ccc(OC(F)(F)F)cc2c1O` F

Is reported inhibition at 33.33 µg/mL greater than or equal to 30% here: `COc1ccc2nc(C(=O)Nc3ccc(-c4ccccc4)cc3)c(C)c(C(=O)O)c2c1` T

Is reported inhibition at 33.33 µg/mL greater than or equal to 30% here: `Cc1c(C(=O)Nc2c(F)cc(-c3cccc(F)c3)cc2F)nc2ccc(F)cc2c1O` F

Is reported inhibition at 33.33 µg/mL greater than or equal to 30% here: Cc1c(-c2ccc(-c3ccccc3F)cc2)nc2ccc(F)cc2c1C(=O)O [BREQUINAR SODIUM] T

Is reported inhibition at 33.33 µg/mL greater than or equal to 30% here: `Cc1c(C(=O)Nc2ccc(-c3ccccc3)cc2)nc2ccccc2c1O` T

Is reported inhibition at 33.33 µg/mL greater than or equal to 30% here: `CCOc1ccc2nc(C(=O)Nc3c(F)cc(-c4cccc(F)c4)cc3F)c(C)c(O)c2c1` F

Is reported inhibition at 33.33 µg/mL greater than or equal to 30% here: `Cc1ccc2nc(C(=O)Nc3c(F)cc(-c4cccc(F)c4)cc3F)c(C)c(O)c2c1` F
